Listing of entries alongside the reported kon.
- Test System: T1, E. coli-expressed recombinant human IL-13 (human, UniProt P35225 35-146)
- T1 construct: Untagged E. coli-expressed human IL-13; also called hIL-13; human IL13 (CA)
- T1 sequence (P35225 other isoform, or with tags, fused parts or gaps): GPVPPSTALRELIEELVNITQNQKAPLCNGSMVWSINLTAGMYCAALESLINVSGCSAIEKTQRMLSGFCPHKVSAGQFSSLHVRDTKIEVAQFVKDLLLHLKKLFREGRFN
- Test Description: BIAcore analysis 1, antibody captured, IL-13 in solution
Reply with just the number (in M⁻¹ s⁻¹).

Below, 2 binders whose answers are already recorded.
| Binder | kon / M⁻¹ s⁻¹ |
| --- | --- |
| L1+A1 (antibody, human IgG1, kappa, V domains shown, Humanised 6A1, VH construct A1 and VL construct L1, human gamma1 wild type / kappa constant regions; also called A1L1; humanised anti-IL-13 mAb L1+A1) VH: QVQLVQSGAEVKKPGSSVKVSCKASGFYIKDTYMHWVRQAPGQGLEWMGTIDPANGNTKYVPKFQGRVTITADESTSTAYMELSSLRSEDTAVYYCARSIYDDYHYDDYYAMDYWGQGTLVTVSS VL: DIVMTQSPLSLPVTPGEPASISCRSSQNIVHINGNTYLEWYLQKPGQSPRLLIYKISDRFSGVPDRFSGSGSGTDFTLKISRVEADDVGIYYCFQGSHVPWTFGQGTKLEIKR | 507000 |
| L2+A1 (antibody, human IgG1, kappa, V domains shown, Humanised 6A1, VH construct A1 and VL construct L2; also called A1L2) VH: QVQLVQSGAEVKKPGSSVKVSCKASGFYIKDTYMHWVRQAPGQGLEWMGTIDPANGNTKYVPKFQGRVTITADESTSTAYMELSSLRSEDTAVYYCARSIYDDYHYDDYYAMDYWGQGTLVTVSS VL: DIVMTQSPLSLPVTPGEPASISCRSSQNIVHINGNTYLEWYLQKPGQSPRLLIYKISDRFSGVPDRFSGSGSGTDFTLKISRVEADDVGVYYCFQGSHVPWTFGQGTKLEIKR | 507000 |

Ask | Report kon for monoclonal antibody 6A1 (antibody, IgG1, V domains shown, also called 6A1 parental mAb; parental mouse mAb 6A1) VH: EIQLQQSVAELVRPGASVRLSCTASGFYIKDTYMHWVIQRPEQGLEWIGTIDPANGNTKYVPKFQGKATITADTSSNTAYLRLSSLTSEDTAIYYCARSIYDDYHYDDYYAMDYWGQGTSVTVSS VL: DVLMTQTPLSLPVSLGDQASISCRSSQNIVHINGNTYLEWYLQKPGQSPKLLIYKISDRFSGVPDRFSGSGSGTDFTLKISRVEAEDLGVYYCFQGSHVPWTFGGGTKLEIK please.
Reply | 1.96e+06

Reference source: patent US20110243928A1
